- System: Escherichia coli
- PROTOCOL_NOTES: Antibacterial activity against Escherichia coli ATCC 25922 (CO-ADD:GN_001); MIC in CAMBH media using NBS plates, by Resazurin F(560/590)
- Format: functional
- ASSAY_SETUP: Concentration 20 uM, ASSAY_TEST Inhibition of Bacterial Growth, detection method Resazurin, Fluorescence (ex560/em590), MEDIA CAMHB, plate type 384well, CORNING #3640, time 18 hr

MOLECULE	Inhibition, %
CCC1CN1P(=O)(Oc1ccc(Cl)cc1)N1CC1CC (configuration not stated)	11.85
c1ccc(C2NCCc3[nH]cnc32)cc1 (configuration not stated)	-9.57
COc1ccc2c3c1O[C@H]1C[C@@H](O)C=C[C@@]31CCN(C)C2	-15.55
FCCN(CCF)c1cccc(Cl)c1	4.68
CN(C)P(=O)(N(C)C)N1CC1	15.32
CC1(C)NC(=S)C(C)(C)N1N=O	8.85
Cc1nccc2c1[nH]c1cc(O)ccc12	7.41
